System: hepatic P-450 cytochrome system
test.summary: Hexenal sleep duration in mice
Assay type: in vivo
particulars: CBF1 mice; oral 3 days, 500 µg/kg; control 25.91 ± 1.57
Structures can show the parent of a compound that is named as a salt. Marks after values point to notes of the source that are not given here.
assay.readout: Hexenal sleep duration (minutes)

Recorded Hexenal sleep duration (minutes), per entry:
* COC(=O)[C@H](Cc1c[nH]cn1)NC(=O)CC[C@H](N)C(=O)O [compound VII, DIHYDROCHLORIDE] | 16.99 ± 1.33* minutes
* CCCCCC(=O)NCCc1c[nH]c2ccccc12 | 12.61 ± 1.45*** minutes
* CC(=O)N[C@@H](CCC(=O)NCCc1c[nH]cn1)C(=O)O | 14.39 ± 1.73*** minutes
* O=C(O)CCC(=O)NCCc1c[nH]cn1 | 21.72 ± 1.24* minutes
* CCCCCCCNC(=O)Cc1c[nH]cn1 | 19.82 ± 2.12* minutes
* O=C(O)CCCC(=O)NCCc1c[nH]cn1 | 22.02 ± 1.45 * minutes

Okay, now this compound:
Data point: COC(=O)[C@@H](N)CCC(=O)N[C@@H](Cc1c[nH]cn1)C(=O)O.Cl.Cl ; Hexenal sleep duration (minutes) = 17.71 ± 0.66*** minutes

###

Task for the reader: assign each of the following compounds its reported HDL-CS.
Test system: mongrel male rats
test.summary: Hypolipidemic activity: experimental hyperlipidemia (atherogenic load)
particulars: atherogenic diet, blood, oral last four days, 500 µg/kg
Structures can show the parent of a compound that is named as a salt. Marks after values point to notes of the source that are not given here.

// below: answered compounds
- COC(=O)[C@H](Cc1c[nH]cn1)NC(=O)CC[C@H](N)C(=O)O [compound VII, DIHYDROCHLORIDE]: 22,3±2,2
- NCCC(=O)NCCc1c[nH]c2ccccc12: 27,8±2,3*^A
- NCCCC(=O)NCCc1c[nH]cn1: 40,8±4,8
- COC(=O)[C@H](Cc1c[nH]cn1)NC(=O)CCCC(=O)O: 20,1±1,6

Now for the compound whose HDL-CS we want.
Record CC(=O)N[C@@H](CCC(=O)NCCc1c[nH]cn1)C(=O)O . Reported HDL-CS: 45,8±3,5***^A

###

Test system: mongrel male rats
test.summary: Hypolipidemic activity: experimental hyperlipidemia (atherogenic load);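 note: serum drawn 18 h after the final dose from rats deprived of food over that interval, groups of 10 animals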
particulars: atherogenic diet, blood, oral last four days, 50 µg/kg
Structures can show the parent of a compound that is named as a salt. Marks after values point to notes of the source that are not given here.
assay.readout: Total CS

Past entries and their recorded results:
• NCCC(=O)NCCc1c[nH]c2ccccc12 = 76,3±5,5*^A
• CC(=O)N[C@@H](CCC(=O)NCCc1c[nH]cn1)C(=O)O = 86,0±5,2
• CC(=O)NC(CC(=O)O)C(=O)NCCc1c[nH]cn1 (stereo not shown) = 99,1±4,5

Please state Total CS for every compound in the list that follows.
1. NCCCC(=O)NCCc1c[nH]cn1
2. COC(=O)[C@H](Cc1c[nH]cn1)NC(=O)CC[C@H](N)C(=O)O [compound VII, DIHYDROCHLORIDE]
3. COC(=O)[C@H](Cc1c[nH]cn1)NC(=O)CCCC(=O)O
4. CC(=O)NC(CC(=O)NCCc1c[nH]cn1)C(=O)O (stereo not shown)

86,5±3,9*^A
72,3±4,9**^A
78,4±4,4*^A
94,1±2,1

Ref: patent EP2229935A1
